B1: HDV Ribozyme (parent)
chain: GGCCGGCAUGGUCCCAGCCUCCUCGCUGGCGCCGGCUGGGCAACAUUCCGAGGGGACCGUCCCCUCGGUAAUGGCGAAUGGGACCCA

- Variants of: B1
- METHOD: self-cleavage, relative activity (ratio to wild type); higher = more cleavage; co-transcriptional
Rule: self-cleavage of 0.2 or more gives Yes; anything lower gives No.

Look over these answered cases.
1) G39U U69G    Yes
2) G53A G76C    Yes
3) A78C C85G    No
4) U12C G28A    No
5) C26A G68C    Yes

Query: Check the entry G34C G39C : does self-cleavage equal or exceed 0.2?
Reply: No

Query: Check the entry C3A A71C : does self-cleavage equal or exceed 0.2?
Reply: No

Query: Check the entry G29A A56U : does self-cleavage equal or exceed 0.2?
Reply: No

Query: Check the entry A43U C61U : does self-cleavage equal or exceed 0.2?
Reply: Yes

Query: Check the entry C22A C36U : does self-cleavage equal or exceed 0.2?
Reply: No
